# System: RKN (Other Solid Carcinomas);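 note: after 72 h of two-drug dosing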
# experiment.summary: Bliss excess, mean over the matrix (fraction); higher = more synergy
compounds and their reported Bliss excess

[
  {
    "compound": "CN(CCO)CC[C@H](CSc1ccccc1)Nc1ccc(S(=O)(=O)NC(=O)c2ccc(N3CCC([C@@H](O)c4ccccc4-c4ccc(Cl)cc4)CC3)cc2)cc1S(=O)(=O)C(F)(F)F [AZD4320] + CS(=O)(=O)CCNCc1ccc(-c2ccc3ncnc(Nc4ccc(OCc5cccc(F)c5)c(Cl)c4)c3c2)o1 [Lapatinib] (first compound max 1 µM, 7x7, partner max 10 µM)",
    "Bliss excess": -0.0121
  },
  {
    "compound": "C[C@@H]1COCCN1c1cc(C2([S@](C)(=N)=O)CC2)nc(-c2ccnc3[nH]ccc23)n1 [AZD6738] + O=C(c1cc(Cc2n[nH]c(=O)c3ccccc23)ccc1F)N1CCN(C(=O)C2CC2)CC1 [Olaparib] (first compound max 10 µM, 7x7, partner max 10 µM)",
    "Bliss excess": -0.007
  },
  {
    "compound": "CN(CCO)CC[C@H](CSc1ccccc1)Nc1ccc(S(=O)(=O)NC(=O)c2ccc(N3CCC([C@@H](O)c4ccccc4-c4ccc(Cl)cc4)CC3)cc2)cc1S(=O)(=O)C(F)(F)F [AZD4320] + C[C@@H](Nc1cc(F)cc(F)c1)c1cc(C(=O)N(C)C)cc2c(=O)cc(N3CCOCC3)oc12 [AZD8186] (first compound max 1 µM, 7x7, partner max 3 µM)",
    "Bliss excess": -0.0338
  },
  {
    "compound": "Cc1cc2ncnn2cc1Nc1ncc2c(n1)n(C1CCOCC1)c(=O)n2C [AZD7648] + COc1cc([C@@H]2c3cc4c(cc3[C@@H](O[C@@H]3O[C@@H]5CO[C@@H](C)O[C@H]5[C@H](O)[C@H]3O)[C@H]3COC(=O)[C@H]23)OCO4)cc(OC)c1O [Etoposide] (first compound max 10 µM, 7x7, partner max 10 µM)",
    "Bliss excess": 0.0299
  },
  {
    "compound": "Cc1c2c(nn1C)CSCc1cc(n(C)n1)CSc1cc(c3ccccc3c1)OCCCc1c(C(=O)O)n(C)c3c-2c(Cl)ccc13 [AZD5991] + C=CCn1c(=O)c2cnc(Nc3ccc(N4CCN(C)CC4)cc3)nc2n1-c1cccc(C(C)(C)O)n1 [AZD1775] (first compound max 1 µM, partner max 1 µM)",
    "Bliss excess": -0.0446
  },
  {
    "compound": "NC1(C(=O)N[C@@H](CCO)c2ccc(Cl)cc2)CCN(c2ncnc3[nH]ccc23)CC1 [Capivasertib] + CC(=O)c1c(C)c2cnc(Nc3ccc(N4CCNCC4)cn3)nc2n(C2CCCC2)c1=O [Palbociclib] (first compound max 10 µM, 7x7, partner max 10 µM)",
    "Bliss excess": -0.0803
  },
  {
    "compound": "CC(=O)Nc1cccc(-n2c(=O)n(C3CC3)c(=O)c3c(Nc4ccc(I)cc4F)n(C)c(=O)c(C)c32)c1 [Trametinib] + Cc1nc(-c2cn3c(n2)-c2ccc(-c4cnn(C(C)(C)C(N)=O)c4)cc2OCC3)n(C(C)C)n1 [Taselisib] (first compound max 1 µM, 7x7, partner max 10 µM)",
    "Bliss excess": 0.124
  },
  {
    "compound": "Cc1c2c(nn1C)CSCc1cc(n(C)n1)CSc1cc(c3ccccc3c1)OCCCc1c(C(=O)O)n(C)c3c-2c(Cl)ccc13 [AZD5991] + CN(C)CCCOc1ccc(-c2ccc3ncc4c(c3c2)n(C2CCOCC2)c(=O)n4C)cn1 [AZD0156] (first compound max 1 µM, 7x7, partner max 1 µM)",
    "Bliss excess": 0.0006
  },
  {
    "compound": "C=CCn1c(=O)c2cnc(Nc3ccc(N4CCN(C)CC4)cc3)nc2n1-c1cccc(C(C)(C)O)n1 [AZD1775] + C1CN(CCC1(C(=O)N[C@@H](CCO)C2=CC=C(C=C2)Cl)N)C3=NC=NC4=C3C=CN4 [Capivasertib] (first compound max 3 µM, partner max 3 µM)",
    "Bliss excess": -0.0476
  },
  {
    "compound": "CC1(C)CCC(CN2CCN(c3ccc(C(=O)NS(=O)(=O)c4ccc(NCC5CCOCC5)c([N+](=O)[O-])c4)c(Oc4cnc5[nH]ccc5c4)c3)CC2)=C(c2ccc(Cl)cc2)C1 [Venetoclax] + Cn1cnc2c(F)c(Nc3ccc(Br)cc3Cl)c(C(=O)NOCCO)cc21 [Selumetinib] (first compound max 1 µM, 7x7, partner max 3 µM)",
    "Bliss excess": -0.0034
  },
  {
    "compound": "CN(CCO)CC[C@H](CSc1ccccc1)Nc1ccc(S(=O)(=O)NC(=O)c2ccc(N3CCC([C@@H](O)c4ccccc4-c4ccc(Cl)cc4)CC3)cc2)cc1S(=O)(=O)C(F)(F)F [AZD4320] + C1CN(CCC1(C(=O)N[C@@H](CCO)C2=CC=C(C=C2)Cl)N)C3=NC=NC4=C3C=CN4 [Capivasertib] (first compound max 1 µM, 7x7, partner max 3 µM)",
    "Bliss excess": -0.0321
  },
  {
    "compound": "N#Cc1cnc(Nc2cc(NC[C@H]3CNCCO3)c(C(F)(F)F)cn2)cn1 [SRA737] + CCc1c2c(nc3ccc(O)cc13)-c1cc3c(c(=O)n1C2)COC(=O)[C@]3(O)CC [SN-38] (first compound max 10 µM, 7x7, partner max 0.3 µM)",
    "Bliss excess": 0.0914
  }
]
